assay: Tmax in mouse at 2 mg/kg, iv by HPLC-MS analysis; type: ADME, organism-based; settings: in vivo
Readout: Tmax (min)
Supply the numeric figure in min, leaving out any unit text.

Query: Can you share its Tmax? I mean this compound: `CC1(C)C(=O)N(c2ccc(C#N)c(C(F)(F)F)c2)C(=S)N1c1ccc(C(=O)NCCCCCC(=O)NO)c(F)c1`
Response: 4.98

* * *

assay: Clearance in mouse at 2 mg/kg, iv by HPLC-MS analysis; type: ADME, organism-based; conditions: in vivo
Readout: clearance (mL/min/kg)
Supply the numeric figure in mL/min/kg, leaving out any unit text.

Query: Can you share its clearance? I mean this molecule: `CC1(C)C(=O)N(c2ccc(C#N)c(C(F)(F)F)c2)C(=S)N1c1ccc(C(=O)NCCCCCC(=O)NO)c(F)c1`
Response: 278

Hey, just so you know, these numbers are from ChEMBL document CHEMBL3862016.
